Every entry's value here was drawn from ChEMBL document CHEMBL1135602.

Biological target: Bifunctional dihydrofolate reductase-thymidylate synthase (Plasmodium falciparum K1)
Sequence (P13922 whole entry): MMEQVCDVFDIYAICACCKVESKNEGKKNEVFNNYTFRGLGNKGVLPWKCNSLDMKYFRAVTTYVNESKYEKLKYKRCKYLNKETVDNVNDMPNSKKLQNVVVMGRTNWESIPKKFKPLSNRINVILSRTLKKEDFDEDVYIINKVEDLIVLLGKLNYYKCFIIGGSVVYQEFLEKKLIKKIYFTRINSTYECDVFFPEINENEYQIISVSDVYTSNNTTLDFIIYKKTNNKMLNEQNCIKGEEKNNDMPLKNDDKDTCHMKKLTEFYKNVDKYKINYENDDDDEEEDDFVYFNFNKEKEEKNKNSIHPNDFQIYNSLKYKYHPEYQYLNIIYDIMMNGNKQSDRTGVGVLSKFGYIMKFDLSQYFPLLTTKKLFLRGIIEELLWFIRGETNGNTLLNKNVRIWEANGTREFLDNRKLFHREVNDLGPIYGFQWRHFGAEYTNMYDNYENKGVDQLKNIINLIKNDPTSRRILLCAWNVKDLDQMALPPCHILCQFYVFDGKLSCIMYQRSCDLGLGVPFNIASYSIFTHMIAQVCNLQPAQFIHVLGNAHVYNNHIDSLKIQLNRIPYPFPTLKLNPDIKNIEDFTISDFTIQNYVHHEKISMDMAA
Assay: Inhibition of the C59R+S108N mutant of dihydrofolate reductase (DHFR)
Quick rule for you: Ki under 30 nM gets Condition met, anything else gets Condition not met.

**Q:** Bench note: check whether Cc1nc(N)nc(N)c1-c1ccc(Cl)cc1 shows Ki below 30 nM
**A:** Condition not met

**Q:** Bench note: check whether Nc1ncc(Cc2ccc(OCCCOc3cc(Cl)c(Cl)cc3Cl)cc2)c(N)n1 shows Ki below 30 nM
**A:** Condition not met

**Q:** Bench note: check whether COc1cc(Cc2cnc(N)nc2N)cc(OC)c1OCc1ccccc1 shows Ki below 30 nM
**A:** Condition not met

**Q:** Bench note: check whether Cc1nc(N)nc(N)c1-c1ccccc1 shows Ki below 30 nM
**A:** Condition not met

**Q:** Bench note: check whether CCCCCCc1nc(N)nc(N)c1-c1ccccc1 shows Ki below 30 nM
**A:** Condition met

**Q:** Bench note: check whether COC(=O)CCCc1nc(N)nc(N)c1-c1ccc(Cl)cc1 shows Ki below 30 nM
**A:** Condition met

**Q:** Bench note: check whether COc1ccc(CCCc2nc(N)nc(N)c2-c2cccc(Cl)c2)cc1 shows Ki below 30 nM
**A:** Condition met

**Q:** Bench note: check whether CCc1nc(N)nc(N)c1-c1ccc(-c2ccccc2)cc1 shows Ki below 30 nM
**A:** Condition not met

**Q:** Bench note: check whether Nc1nc(N)c(-c2ccccc2)c(CCCc2ccccc2)n1 shows Ki below 30 nM
**A:** Condition met

**Q:** Bench note: check whether Nc1nc(N)c(-c2cccc(Cl)c2)c(CCOCCCOc2ccccc2)n1 shows Ki below 30 nM
**A:** Condition met

**Q:** Bench note: check whether Nc1nc(N)c(-c2ccc(Cl)cc2)c(CCCc2ccccc2)n1 shows Ki below 30 nM
**A:** Condition met

**Q:** Bench note: check whether COc1cc(Cc2cnc(N)nc2N)ccc1OCCCc1ccccc1 shows Ki below 30 nM
**A:** Condition not met

---

Assay: Safety ratio is cytotoxicity to KB cells/IC50 K1.
Type: toxicity, cell-based
Settings: human, KB cells (epidermoid carcinoma); read-out: Safety ratio
Measured Parameter: selectivity ratio

**Q:** Any idea what selectivity ratio was measured for CCCCCCc1nc(N)nc(N)c1-c1ccccc1 ?
**A:** 87

**Q:** Any idea what selectivity ratio was measured for CCc1nc(N)nc(N)c1-c1cccc(Cl)c1 ?
**A:** 35.4

**Q:** Any idea what selectivity ratio was measured for CCc1nc(N)nc(N)c1-c1ccccc1 ?
**A:** > 151

**Q:** Any idea what selectivity ratio was measured for Nc1nc(N)c(-c2ccccc2)c(CCCc2ccccc2)n1 ?
**A:** > 217

**Q:** Any idea what selectivity ratio was measured for CCc1nc(N)nc(N)c1-c1ccc(C(C)(C)C)cc1 ?
**A:** 22

**Q:** Any idea what selectivity ratio was measured for Nc1nc(N)c(-c2cccc(Cl)c2)c(CCOCCCOc2ccccc2)n1 ?
**A:** 2.5

---

Experiment: Safety ratio is cytotoxicity to vero cells/IC50 KI.
Format: toxicity, cell-based
Conditions: monkey, read-out: Safety ratio
Measured Parameter: selectivity ratio
Enter the number alone.

**Q:** Any idea what selectivity ratio was measured for CCc1nc(N)nc(N)c1-c1ccc(C(C)(C)C)cc1 ?
**A:** 26
